# system.under.test: EGFR (Human), P00533 [T790M/L858R]
# Sequence (P00533 whole entry T790M/L858R, looked up): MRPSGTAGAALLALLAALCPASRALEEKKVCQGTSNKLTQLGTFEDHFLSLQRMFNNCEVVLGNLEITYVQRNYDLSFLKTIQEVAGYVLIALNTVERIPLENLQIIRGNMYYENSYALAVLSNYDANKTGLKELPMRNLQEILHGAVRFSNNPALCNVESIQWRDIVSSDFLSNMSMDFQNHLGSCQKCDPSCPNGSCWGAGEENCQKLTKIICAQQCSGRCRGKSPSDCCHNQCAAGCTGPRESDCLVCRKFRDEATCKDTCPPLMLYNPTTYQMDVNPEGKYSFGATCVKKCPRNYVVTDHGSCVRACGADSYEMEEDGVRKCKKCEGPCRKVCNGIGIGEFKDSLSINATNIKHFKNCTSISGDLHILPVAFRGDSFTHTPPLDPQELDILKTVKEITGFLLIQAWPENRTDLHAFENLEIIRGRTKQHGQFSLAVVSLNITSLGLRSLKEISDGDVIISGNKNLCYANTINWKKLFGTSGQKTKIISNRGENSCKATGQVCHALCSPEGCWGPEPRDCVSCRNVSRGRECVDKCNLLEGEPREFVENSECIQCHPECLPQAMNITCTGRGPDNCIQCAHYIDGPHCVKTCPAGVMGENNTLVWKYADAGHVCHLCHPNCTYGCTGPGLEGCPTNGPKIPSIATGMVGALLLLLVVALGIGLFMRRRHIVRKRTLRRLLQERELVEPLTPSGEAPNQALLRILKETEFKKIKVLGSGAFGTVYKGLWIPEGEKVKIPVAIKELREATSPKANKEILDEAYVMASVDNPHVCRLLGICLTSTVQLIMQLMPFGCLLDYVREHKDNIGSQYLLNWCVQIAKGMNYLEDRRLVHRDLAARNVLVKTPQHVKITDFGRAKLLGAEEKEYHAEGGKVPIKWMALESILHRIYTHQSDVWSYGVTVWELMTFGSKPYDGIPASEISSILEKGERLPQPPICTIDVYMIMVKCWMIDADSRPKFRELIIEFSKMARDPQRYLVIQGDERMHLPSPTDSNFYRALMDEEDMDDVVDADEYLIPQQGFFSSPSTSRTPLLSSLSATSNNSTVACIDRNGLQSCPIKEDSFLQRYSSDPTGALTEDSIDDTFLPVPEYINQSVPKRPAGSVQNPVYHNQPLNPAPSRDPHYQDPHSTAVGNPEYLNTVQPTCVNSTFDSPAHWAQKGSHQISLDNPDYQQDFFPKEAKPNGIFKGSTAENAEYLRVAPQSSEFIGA
# setup.conditions: baf3
pIC50: −log10 of the molar value.
endpoint: pIC50

                                   compound  endpoint  result
0  COc1ccc(NC(=O)C#CCN(C)C)cc1Nc1ncc(Cl)c(Nc2ccccc2P(C)(C)=O)n1     pIC50  > 7.30
1  C=CC(=O)Nc1cc(Nc2ncc(Cl)c(Nc3ccccc3P(C)(C)=O)n2)c(OC)cc1OC1CCCN(CCOC)C1 (centres undefined)     pIC50  > 7.30
2  C=CC(=O)Nc1cc(Nc2ncc(Cl)c(Nc3ccccc3P(C)(C)=O)n2)c(OC)cc1OCCN1CCCC1     pIC50  > 7.30

--- query ---
pIC50 in this record for C=CC(=O)Nc1ccc(OC)c(Nc2ncc(Cl)c(Nc3ccc(OC4CCOC4)cc3P(C)(C)=O)n2)c1 (centres undefined) : 7.00 to 7.30

----------
# system.under.test: EGFR (Human), P00533 [T790M/L858R]
# setup.conditions: baf3
pIC50: −log10 of the molar value.
Catalogue of pIC50 readings, one per entry.

Sure, the documented pIC50 for "C=CC(=O)Nc1cc(Nc2ncc(Cl)c(Nc3ccccc3P(C)(C)=O)n2)c(OC)cc1C#CCCN(C)C" is > 7.30

// field: pIC50; key: C=CC(=O)Nc1cc(Nc2ncc(Cl)c(Nc3ccccc3P(C)(C)=O)n2)c(Cl)cc1OC(COC)CN(C)C (stereo not drawn) ; value = > 7.30

pIC50 for "C=CC(=O)Nc1cc(Nc2ncc(Cl)c(Nc3ccccc3P(C)(C)=O)n2)c(OC)cc1CN1CCN(C)CC1" is 7.00 to 7.30

Reported pIC50 of "C=CC(=O)Nc1cc(Nc2ncc(Cl)c(Nc3ccccc3P(C)(C)=O)n2)c(Cl)cc1C#CCN(C)C" : > 7.30

Short answer for "COc1ccc(NC(=O)CCl)cc1Nc1ncc(Cl)c(Nc2ccccc2P(C)(C)=O)n1" : pIC50 was > 7.30

Sample C=CC(=O)Nc1cc(Nc2ncc(Cl)c(Nc3ccccc3P(C)(C)=O)n2)c(OC)cc1N1CCCC(N(C)C)C1 (stereo not drawn) ; pIC50 observed: > 7.30

The recorded pIC50 for entry "C=C(CN1CCOCC1)C(=O)Nc1ccc(OC)c(Nc2ncc(Cl)c(Nc3ccccc3P(C)(C)=O)n2)c1" equals > 7.30

Measured pIC50 of "C=CC(=O)Nc1ccc(OC)c(Nc2ncc(Cl)c(Nc3ccc(OCCOC)cc3P(C)(C)=O)n2)c1" : 7.00 to 7.30

----------
// endpoint pIC50 / system EGFR (Human), P00533 [T790M/L858R]
pIC50: −log10 of the molar value.

>>> df
                                   molecule                   system_under_test  endpoint        result
0  C=CC(=O)Nc1cc(Nc2ncc(Cl)c(Nc3ccccc3P(C)(C)=O)n2)c(OC)cc1N(C)CCN(C)CCF  EGFR (Human), P00533 [T790M/L858R]     pIC50        > 7.30
1  COCC1CCCN1CCC#CC(=O)Nc1cc(Nc2ncc(Cl)c(Nc3ccccc3P(C)(C)=O)n2)c(OC)cc1N1CCOCC1 (centres undefined)  EGFR (Human), P00533 [T790M/L858R]     pIC50        > 7.30
2  C=CC(=O)Nc1ccc(OC)c(Nc2cc(Nc3ccccc3P(C)(C)=O)ncn2)c1  EGFR (Human), P00533 [T790M/L858R]     pIC50  6.60 to 7.00

Attention now shifts to the item below.
The molecule "COc1ccc(NC(=O)/C=C\C(=O)O)cc1Nc1ncc(Cl)c(Nc2ccccc2P(C)(C)=O)n1" on EGFR (Human), P00533 [T790M/L858R]: pIC50 was 6.60 to 7.00
